Task for the reader: assign each of the following binders its reported Internalization % TOP.
system.under.test: human GLP-1R (SNAP-GLP-1R expressed in HEK293 cells) (human) (UniProt P43220)
Sequence (P43220 24-463): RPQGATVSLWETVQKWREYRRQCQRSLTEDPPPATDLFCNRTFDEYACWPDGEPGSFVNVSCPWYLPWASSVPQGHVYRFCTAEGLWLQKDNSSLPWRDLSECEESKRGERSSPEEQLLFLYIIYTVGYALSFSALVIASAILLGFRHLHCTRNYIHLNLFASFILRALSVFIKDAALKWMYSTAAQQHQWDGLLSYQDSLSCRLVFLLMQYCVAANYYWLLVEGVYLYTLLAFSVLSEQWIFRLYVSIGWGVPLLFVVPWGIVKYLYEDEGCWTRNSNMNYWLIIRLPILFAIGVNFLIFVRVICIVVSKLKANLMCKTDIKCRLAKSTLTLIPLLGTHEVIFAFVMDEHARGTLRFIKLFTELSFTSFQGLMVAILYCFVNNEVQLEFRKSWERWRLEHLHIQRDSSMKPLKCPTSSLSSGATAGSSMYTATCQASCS
assay.procedure: cell-based or functional assay
Give just the numeric value; % need not be written.

Problem: Complete the entry with Internalization % TOP for YXQGTFTSDFSRXLDKKAQXAFIEYLIEXGESSGAPPPSGS (synthetic construct; SITE 2: note = 2-Aminoisobutyric Acid; SITE 13: note = alpha-methyl-leucine; SITE 17: note = Lysine is chemically modified through conjugation of the epsilon-amino group of the Lysine side chain with (2-[2-(2-Amino-ethoxy)-ethoxy]-acetyl)-(gamma-Glu)-CO-(CH2) 16-CO2H; SITE 20: n) [Example 230]
Result: 31.2

Problem: Complete the entry with Internalization % TOP for YXQGTFTSDXSXXLDKKAQXAFIEWLLEGGPSSGEPPPSGE (synthetic construct; SITE 2: note = 2-Aminoisobutyric Acid; SITE 10: note = 3-(4-Pyridyl)-L-alanine; SITE 12: note = L-ornithine; SITE 13: note = alpha-methyl-leucine; SITE 17: note = Lysine is chemically modified through conjugation of the epsilon-amino group of the Lysine side chain with (2-[2-(2-) [Example 115]
Result: 56.5

Problem: Complete the entry with Internalization % TOP for YXQGTFTSDFSXXLDKKAQXAFIEWLLEGGPSSGAPPPSGE (synthetic construct; SITE 2: note = 2-Aminoisobutyric Acid; SITE 12: note = L-ornithine; SITE 13: note = alpha-methyl-leucine; SITE 17: note = Lysine is chemically modified through conjugation of the epsilon-amino group of the Lysine side chain with (2-[2-(2-Amino-ethoxy)-ethoxy]-acetyl)-(gamma-Glu)) [Example 119]
Result: 43.4

Problem: Complete the entry with Internalization % TOP for YXQGTFTSDFSXXLDKKAQXAFIEYLLEAGPSSGHPPPSGS (synthetic construct; SITE 2: note = 2-Aminoisobutyric Acid; SITE 12: note = L-ornithine; SITE 13: note = alpha-methyl-leucine; SITE 17: note = Lysine is chemically modified through conjugation of the epsilon-amino group of the Lysine side chain with (2-[2-(2-Amino-ethoxy)-ethoxy]-acetyl)2-(gamma-Glu)) [Example 253]
Result: 55.2

Problem: Complete the entry with Internalization % TOP for YXQGTFTSDFSIXLDKKAQXAFIEYLLEGGPSSGEPPPSEG (synthetic construct; SITE 2: note = 2-Aminoisobutyric Acid; SITE 13: note = alpha-methyl-leucine; SITE 17: note = Lysine is chemically modified through conjugation of the epsilon-amino group of the Lysine side chain with (2-[2-(2-Amino-ethoxy)-ethoxy]-acetyl)-(gamma-Glu)-CO-(CH2) 18-CO2H; SITE 20: n) [Example 288]
Result: 72.4

Problem: Complete the entry with Internalization % TOP for YXQGTFTSDYSKXLDKKAQXAFIEYLLEGGESSGAPPPSGS (synthetic construct; SITE 2: note = 2-Aminoisobutyric Acid; SITE 13: note = alpha-methyl-leucine; SITE 17: note = Lysine is chemically modified through conjugation of the epsilon-amino group of the Lysine side chain with (2-[2-(2-Amino-ethoxy)-ethoxy]-acetyl)-(gamma-Glu)-CO-(CH2) 16-CO2H; SITE 20: n) [Example 358]
Result: 83.1
